- system.name: SAT from Salmonella enterica serovar Typhimurium (Salmonella typhimurium)
- Construct: trxA (thioredoxin) fusion; made in house
- experiment.description: StSAT enzyme activity assay (spectrophotometric indirect assay with Ellman's reagent)
- Format: biochemical
- study.conditions: Table 2, analogues of compound 5; * = estimated due to solubility issues; read-out: IC50
experimental.readout: pIC50
Convention used: pIC50 is expressed as -log10 of the molar concentration.

structure.string: Cc1ccc(Nc2nc(-c3cc(C(=O)Nc4ccccc4)no3)cs2)cc1
system.name: SAT from Salmonella enterica serovar Typhimurium (Salmonella typhimurium)
pIC50: 4.80
--
structure.string: Cc1ccc(Nc2nc(-c3cc(C(N)=O)no3)cs2)cc1
system.name: SAT from Salmonella enterica serovar Typhimurium (Salmonella typhimurium)
pIC50: 4.59
--
structure.string: Cc1ccc(Nc2nc(-c3cc(C(=O)O)nn3C)cs2)cc1
system.name: SAT from Salmonella enterica serovar Typhimurium (Salmonella typhimurium)
pIC50: 3.74
--
structure.string: O=C(O)c1cc(-c2csc(Nc3cc(Cl)cc(Cl)c3)n2)on1
system.name: SAT from Salmonella enterica serovar Typhimurium (Salmonella typhimurium)
pIC50: 4.96
--
structure.string: Cn1nc(C(=O)O)cc1-c1csc(Nc2cc(Cl)cc(Cl)c2)n1
system.name: SAT from Salmonella enterica serovar Typhimurium (Salmonella typhimurium)
pIC50: 4.68

Q) # get_value(readout='pIC50', item= "COc1ccc(-c2cc(-c3csc(Nc4ccc(C)cc4)n3)on2)cc1" )
A) 4.92

Q) Returns the measured pIC50 for the input compound. Input: "Cc1ccc(Nc2nc(-c3cc(C(=O)NC45CC6CC(CC(C6)C4)C5)no3)cs2)cc1"
A) 5.05

Q) // query pIC50 value for entry "CCOC(=O)c1cc(-c2coc(Nc3ccc(C)cc3)n2)on1"
A) 5.15

Q) Any idea what its pIC50 is? The compound is "CCOC(=O)c1cc(-c2csc(Nc3cc(Cl)cc(Cl)c3)n2)on1"
A) 4.74

###

- system.name: SAT from Salmonella enterica serovar Typhimurium (Salmonella typhimurium, UniProt P29847)
- Construct: trxA (thioredoxin) fusion; made in house
- Sequence (P29847 whole entry, the tested form may be a part): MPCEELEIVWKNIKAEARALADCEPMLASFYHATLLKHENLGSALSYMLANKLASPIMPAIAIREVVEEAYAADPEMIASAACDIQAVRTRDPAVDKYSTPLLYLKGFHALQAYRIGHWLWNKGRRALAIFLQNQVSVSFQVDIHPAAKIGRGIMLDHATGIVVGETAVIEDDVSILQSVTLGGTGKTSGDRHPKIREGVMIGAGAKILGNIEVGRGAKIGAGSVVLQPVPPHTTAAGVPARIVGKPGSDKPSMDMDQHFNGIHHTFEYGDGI
- experiment.description: StSAT enzyme activity assay (spectrophotometric indirect assay with Ellman's reagent)
- Assay type: biochemical
- study.conditions: Table 3, synthesised compounds; read-out: StSAT IC50
Reported IC50 values for a set of compounds

Q) What IC50 value was documented for this compound, O=C(O)c1cc(-c2coc(Nc3ccc(F)cc3)n2)on1 [Compound 22c] ?
A) 2.51 µM

Q) Report IC50 for CCOC(=O)c1cc(-c2coc(Nc3cc(Cl)cc(Cl)c3)n2)on1 [Compound 21b] please.
A) 2.52 µM

Q) Which IC50 is listed for O=C(O)c1cc(-c2coc(Nc3ccncc3)n2)on1 [Compound 22e] ?
A) 12 µM

Q) Bench note: what IC50 did Cc1cc(C)cc(Nc2nc(-c3cc(C(=O)O)no3)co2)c1 [Compound 22d] show?
A) 4.24 µM

Q) Which IC50 value is on record for CCOC(=O)c1cc(-c2coc(Nc3ccccc3)n2)on1 [Compound 21a] ?
A) 2.68 µM

Q) For CCOC(=O)c1cc(-c2coc(Nc3ccc(F)cc3)n2)on1 [Compound 21c] , what is its reported IC50?
A) 3.04 µM

Q) For the compound shown here, CCOC(=O)c1cc(-c2coc(Nc3ccncc3)n2)on1 [Compound 21e] , give the reported IC50.
A) 3.95 µM

###

Overview of reported pIC50 across a group of compounds:
- system.name: SAT from Salmonella enterica serovar Typhimurium (Salmonella typhimurium, UniProt P29847)
- Construct: trxA (thioredoxin) fusion; made in house
- experiment.description: StSAT enzyme activity assay (spectrophotometric indirect assay with Ellman's reagent)
- Type: biochemical
- study.conditions: StSAT IC50, Table 3, synthesised compounds
In plain terms, pIC50 is the concentration in mol/L turned into minus its base-10 logarithm.

compound: O=C(O)c1cc(-c2coc(Nc3cc(Cl)cc(Cl)c3)n2)on1 [Compound 22b]
readout.number: 5.10

Consider now this further compound.
Q) Any idea what pIC50 was measured for O=C(O)c1cc(-c2coc(Nc3ccccc3)n2)on1 [Compound 22a] ?
A) 5.81

###

- system.name: SAT from Salmonella enterica serovar Typhimurium (Salmonella typhimurium)
- Construct: trxA (thioredoxin) fusion; made in house
- experiment.description: StSAT enzyme activity assay (spectrophotometric indirect assay with Ellman's reagent)
- Format: biochemical
- study.conditions: values as quoted in the SAR discussion text; read-out: IC50
pIC50: −log10 of the molar value.
Binary call on pIC50: condition met from 5 upward, condition not met beneath that.

Would you please look over these solved cases?
structure.string: Cc1ccc(Nc2nc(-c3cc(C(=O)Nc4ccccc4)no3)cs2)cc1
system.name: SAT from Salmonella enterica serovar Typhimurium (Salmonella typhimurium)
class: condition not met

structure.string: CNC(=O)c1cc(-c2csc(Nc3ccc(C)cc3)n2)on1
system.name: SAT from Salmonella enterica serovar Typhimurium (Salmonella typhimurium)
class: condition not met

// switching to the query molecule
Q) Decide: is the reported value of pIC50 for "Cc1ccc(Nc2nc(-c3cc(C(=O)O)no3)co2)cc1" equal to or greater than 5?
A) condition met

###

- system.name: SAT from Salmonella enterica serovar Typhimurium (Salmonella typhimurium)
- Construct: trxA (thioredoxin) fusion; made in house
- experiment.description: StSAT enzyme activity assay (spectrophotometric indirect assay with Ellman's reagent)
- Assay type: biochemical
- study.conditions: compound at fixed 1 mM; both substrates equal to Km; 5% DMSO
Listing of entries alongside the reported inhibition at 1000 µM.

Use these answered entries as a reference point.
compound: Cc1ccc(C(=O)O)c(N)n1
inhibition at 1000 µM: 19.4%

compound: CCn1c2ccccc2c2cc(CNC)ccc21
inhibition at 1000 µM: 23.6%

compound: CC(=O)NC(C(=O)O)C(=O)O
inhibition at 1000 µM: 18.7%

compound: O=C(O)[C@H]1C[C@@H]1c1ccccc1
inhibition at 1000 µM: > 40%

compound: CC1CN(C(=O)c2cc3ccccc3[nH]2)CC(C)N1 (stereo not drawn)
inhibition at 1000 µM: 31.4%

Here's the next entry for you.
Q) Reported inhibition at 1000 µM, compound O=C(O)C1C2C=CC(C2)C1C(=O)O (stereo not drawn) : ____
A) 34.9%

This collection of values is drawn from paper PMC7931047.
